Give pKa for every item shown.
experiment: Dissociation constant (pKa1)
# answer = number (no unit)

IN: Give the value of pKa reported for the following: `Cc1ccccc1-n1cc(C(=O)O)c(=O)c2cc(F)c(N3CCNCC3)cc21`
OUT: 5.98

IN: State its pKa for this compound: `O=C(O)c1cn(-c2ccc(F)cc2F)c2cc(N3CCNCC3)c(F)cc2c1=O`
OUT: 5.87

IN: Let me know recorded pKa for Cc1ccc(-n2cc(C(=O)O)c(=O)c3cc(F)c(N4CC(C)NC(C)C4)cc32)cc1 (centres undefined) , thanks.
OUT: 6.1

IN: Tell me pKa reported for CC1CN(c2cc3c(cc2F)c(=O)c(C(=O)O)cn3-c2ccccc2F)CC(C)N1 (centres undefined)
OUT: 5.88

IN: Identify the reported pKa for the following entry. `O=C(O)c1cn(-c2ccc(F)cc2)c2cc(N3CCNCC3)c(F)cc2c1=O`
OUT: 6.02

IN: Give reported pKa value for CC1CN(c2cc3c(cc2F)c(=O)c(C(=O)O)cn3-c2ccc(F)cc2F)CC(C)N1 (centres undefined)
OUT: 5.94

IN: Identify pKa associated with the compound Cc1ccc(-n2cc(C(=O)O)c(=O)c3cc(F)c(N4CC(C)NC(C)C4)cc32)c(C)c1 (centres undefined)
OUT: 6.05

IN: Please report the measured pKa for CC1CN(c2cc3c(cc2F)c(=O)c(C(=O)O)cn3-c2ccccc2)CC(C)N1 (centres undefined)
OUT: 6.12

IN: Determine its reported pKa: CC1CN(c2cc3c(cc2F)c(=O)c(C(=O)O)cn3-c2ccc(Cl)cc2Cl)CC(C)N1 (centres undefined)
OUT: 5.75

* * *

Task for the reader: assign each of the following compounds its reported MIC.
Test system: Pseudomonas aeruginosa
experiment: Minimum inhibitory concentration against gram-negative Pseudomonas aeruginosa U1-18 (PA-7)
Type: functional

IN: In one line, give reported MIC of the entry `Cc1cc(F)ccc1-n1cc(C(=O)O)c(=O)c2cc(F)c(N3CCNCC3)cc21` .
OUT: 0.4 µg/mL

IN: Supply reported MIC belonging to this compound: CC1CN(c2cc3c(cc2F)c(=O)c(C(=O)O)cn3-c2ccccc2F)CC(C)N1 (stereo unspecified)
OUT: 1.6 µg/mL

IN: Give the measured MIC for `Cc1ccccc1-n1cc(C(=O)O)c(=O)c2cc(F)c(N3CCNCC3)cc21`
OUT: 1.6 µg/mL

IN: Quote MIC reported for Cc1cc(F)ccc1-n1cc(C(=O)O)c(=O)c2cc(F)c(N3CC(C)NC(C)C3)cc21 (stereo unspecified) please.
OUT: 1.6 µg/mL

IN: In one line, give reported MIC of the entry CC1CN(c2cc3c(cc2F)c(=O)c(C(=O)O)cn3-c2ccc(Cl)cc2Cl)CC(C)N1 (stereo unspecified) .
OUT: > 3.1 µg/mL

IN: Output MIC of CC1CN(c2cc3c(cc2F)c(=O)c(C(=O)O)cn3-c2ccc(F)cc2F)CC(C)N1 (stereo unspecified)
OUT: 0.8 µg/mL

* * *

Tested on: Mycolicibacterium fortuitum
experiment: Minimum inhibitory concentration against Mycobacterium fortuitum
Type: functional
assay.readout: MIC (µg/mL)
All answers are understood in µg/mL, so give the number only.

IN: In one line, give reported MIC of the entry CC1CN(c2cc3c(cc2F)c(=O)c(C(=O)O)cn3-c2ccc(F)cc2)CC(C)N1 (stereo not given) .
OUT: 0.25

IN: // Input: `Cc1ccc(-n2cc(C(=O)O)c(=O)c3cc(F)c(N4CCNCC4)cc32)c(C)c1` . Output its MIC only.
OUT: 16

IN: Give the reported MIC for this compound. `O=C(O)c1cn(-c2ccc(F)cc2F)c2cc(N3CCNCC3)c(F)cc2c1=O`
OUT: 0.25

IN: Provide MIC value for the following compound: `O=C(O)c1cn(-c2ccc(Cl)cc2Cl)c2cc(N3CCNCC3)c(F)cc2c1=O`
OUT: 2

IN: Identify the reported MIC for the following entry. Cc1ccc(-n2cc(C(=O)O)c(=O)c3cc(F)c(N4CC(C)NC(C)C4)cc32)c(C)c1 (stereo not given)
OUT: 4

* * *

Tested on: Mycolicibacterium fortuitum
experiment: Minimum inhibitory concentration against Mycobacterium fortuitum
Assay type: functional
Give MIC for every item shown.
Kindly provide the numeric value in µg/mL only, without the unit symbol.

IN: Output reported MIC of the compound CC1CN(c2cc3c(cc2F)c(=O)c(C(=O)O)cn3-c2ccc(Cl)cc2Cl)CC(C)N1 (centres undefined) on Mycolicibacterium fortuitum.
OUT: 2

IN: Jot down MIC (Mycolicibacterium fortuitum) of `C[C@@H]1CN(c2c(F)c(N)c3c(=O)c(C(=O)O)cn(C4CC4)c3c2F)C[C@H](C)N1` .
OUT: 0.06

IN: System Mycolicibacterium fortuitum. Read-out MIC. Item CC1CN(c2cc3c(cc2F)c(=O)c(C(=O)O)cn3-c2ccccc2)CC(C)N1 (centres undefined) . Report value.
OUT: 2

IN: Given Cc1c(F)ccc(-n2cc(C(=O)O)c(=O)c3cc(F)c(N4CC(C)NC(C)C4)cc32)c1F (centres undefined) , report its MIC on Mycolicibacterium fortuitum.
OUT: 1

* * *

Test system: Staphylococcus aureus
experiment: Minimum inhibitory concentration against gram-positive Staphylococcus aureus H-228 (SA-13)
Assay type: functional
assay.readout: MIC

IN: In one line, give reported MIC of the entry Cc1ccccc1-n1cc(C(=O)O)c(=O)c2cc(F)c(N3CC(C)NC(C)C3)cc21 (centres undefined) .
OUT: > 3.1 µg/mL

IN: # return recorded MIC for input CC1CN(c2cc3c(cc2F)c(=O)c(C(=O)O)cn3-c2ccc(F)cc2)CC(C)N1 (centres undefined)
OUT: 0.4 µg/mL

IN: Specify measured MIC for `Cc1ccc(-n2cc(C(=O)O)c(=O)c3cc(F)c(N4CCNCC4)cc32)cc1` .
OUT: 3.1 µg/mL

IN: State its MIC: `O=C(O)c1cn(-c2ccccc2)c2cc(N3CCNCC3)c(F)cc2c1=O`
OUT: 0.8 µg/mL

IN: Read off the recorded MIC for `C[C@@H]1CN(c2c(F)c(N)c3c(=O)c(C(=O)O)cn(C4CC4)c3c2F)C[C@H](C)N1`
OUT: 0.05 µg/mL

IN: Fill in reported MIC for this entry: CC1CN(c2cc3c(cc2F)c(=O)c(C(=O)O)cn3-c2ccc(Cl)cc2Cl)CC(C)N1 (centres undefined)
OUT: > 3.1 µg/mL

IN: Return reported MIC. Input compound: Cc1ccc(-n2cc(C(=O)O)c(=O)c3cc(F)c(N4CC(C)NC(C)C4)cc32)c(C)c1 (centres undefined)
OUT: > 3.1 µg/mL

IN: Please list MIC recorded for the compound `Cc1ccc(-n2cc(C(=O)O)c(=O)c3cc(F)c(N4CCNCC4)cc32)c(C)c1`
OUT: > 3.1 µg/mL

IN: Annotate the compound `O=C(O)c1cn(-c2ccc(Cl)cc2Cl)c2cc(N3CCNCC3)c(F)cc2c1=O` with its measured MIC.
OUT: > 3.1 µg/mL
